Target: human CXCR3 (N-delta 4) (Homo sapiens, UniProt P49682)
Construct: CD8 leader (N); Flag; expressed in transfected cells; membranes prepared
Sequence (P49682 5-368 limits assumed): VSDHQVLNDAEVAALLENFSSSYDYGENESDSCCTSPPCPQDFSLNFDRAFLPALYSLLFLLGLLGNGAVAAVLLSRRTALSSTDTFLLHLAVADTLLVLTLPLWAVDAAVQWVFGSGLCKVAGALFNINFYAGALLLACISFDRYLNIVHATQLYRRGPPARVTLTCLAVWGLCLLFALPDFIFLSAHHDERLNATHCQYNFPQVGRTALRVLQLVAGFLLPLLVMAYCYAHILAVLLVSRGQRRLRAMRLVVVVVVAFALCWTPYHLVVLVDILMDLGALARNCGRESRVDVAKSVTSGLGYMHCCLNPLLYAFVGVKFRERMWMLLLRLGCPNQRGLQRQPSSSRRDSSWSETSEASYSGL
Assay: Human CXCR3 (N-delta 4) Scintillation Proximity Assay (SPA), [125I] IP-10 binding to Ba/F3-hCXCR3 membranes
Settings: IC50 rating, Table 1; read-out: IC50
Text: The inventive compounds can readily be evaluated to determine activity at the CXCR3 receptors by known methods, such as, for example, development of a human CXCR3 (N-delta 4) Binding Assay. Cloning and Expression of Human CXCR3 (N-delta 4): The DNA encoding human CXCR3 was cloned by PCR using human genomic DNA (Promega, Madison, Wis.) as a template. […]
Measurement Type: IC50

These recorded examples may help you get a feel for the data.
Compound	Recorded Measurement
CC[C@H]1CN(c2nc(N)c(C(=O)NC[C@@H](C)O)nc2Cl)CCN1C1CCN(Cc2ccc(Cl)cc2[C@H](O)C(N)=O)CC1	< 25 nM
CC[C@H]1CN(c2nc(N)c(C(=O)N3CC[C@H](NS(C)(=O)=O)C3)nc2Cl)CCN1C1CCN(Cc2ccc(Cl)cc2)CC1	> 100 nM
CC[C@H]1CN(c2nc(N)c(C(=O)NCCO)nc2Cl)CCN1C1CCN(Cc2ccc(Cl)cc2C(N)=O)CC1	< 25 nM
CC[C@H]1CN(c2nc(N)c(C(=O)NCCNS(N)(=O)=O)nc2Cl)CCN1C1CCN(Cc2ccc(Cl)cc2)CC1	< 25 nM
CC[C@H]1CN(c2nc(N)c(C(=O)NC)nc2Cl)CCN1C1CCN(Cc2ccc(C#N)cc2)CC1	< 25 nM

[in] Look up IC50: `CC[C@H]1CN(c2nc(N)c(C(=O)NC3CC3)nc2Cl)CCN1C1CCN(Cc2ccc(Cl)cc2S(C)(=O)=O)CC1`
[out] < 25 nM

[in] IC50 for `CC[C@H]1CN(c2ncc(C(=O)NC3CC3)nc2C)[C@H](C)CN1C1CCN([C@H](CO)c2ccc(Cl)cc2)CC1` ?
[out] < 25 nM

[in] // query IC50 value for entry `CC[C@H]1CN(c2nc(N)c(C(=O)NC3CC3)nc2Cl)CCN1C1CCN(Cc2ccc(C#N)cc2OCCN2CCCC2=O)CC1`
[out] < 25 nM

[in] // returns reported IC50 for input CC[C@H]1CN(c2nc(N)c(C(=O)NCCNS(N)(=O)=O)nc2Cl)CCN1C1CCN(C(C(=O)OC)c2ccc(Cl)cc2)CC1 (some centres unmarked)
[out] > 100 nM

[in] Dear colleague, I am looking for the recorded IC50 of the following compound: CC[C@H]1CN(c2nc(N)c(C(=O)NCCNC(N)=O)nc2Cl)CCN1C1CCN(C(CO)c2ccc(Cl)cc2)CC1 (some centres unmarked)
[out] < 25 nM

----------
Biological target: human CXCR3 (N-delta 4) (Homo sapiens, UniProt P49682)
Construct: CD8 leader (N); Flag; expressed in transfected cells; membranes prepared
Assay: Human CXCR3 (N-delta 4) Scintillation Proximity Assay (SPA), [125I] IP-10 binding to Ba/F3-hCXCR3 membranes
Details: IC50 rating, Table 1; read-out: IC50
Excerpt: The inventive compounds can readily be evaluated to determine activity at the CXCR3 receptors by known methods, such as, for example, development of a human CXCR3 (N-delta 4) Binding Assay. Cloning and Expression of Human CXCR3 (N-delta 4): The DNA encoding human CXCR3 was cloned by PCR using human genomic DNA (Promega, Madison, Wis.) as a template. […]
Measurement Type: IC50

Compound	Assayed System	Recorded Measurement
CC[C@H]1CN(c2ncc(C(=O)NC3CC3)nc2C)[C@H](C)CN1C1CCN(C(=O)c2ccc(Cl)cc2)CC1 [compound 468]	human CXCR3 (N-delta 4) (Homo sapiens, UniProt P49682)	< 25 nM
CC[C@H]1CN(c2nc(N)c(C(=O)NCCCN3CCCC3=O)nc2Cl)CCN1C1CCN(Cc2ccc(C#N)cc2)CC1 [compound 276]	human CXCR3 (N-delta 4) (Homo sapiens, UniProt P49682)	> 100 nM
CC[C@H]1CN(c2nc(N)c(C(=O)NCCO)nc2Cl)CCN1C1CCN(Cc2ccc(Cl)cc2OCCOC)CC1 [compound 115]	human CXCR3 (N-delta 4) (Homo sapiens, UniProt P49682)	< 25 nM
CC[C@H]1CN(c2nc(N)c(C(=O)NC[C@@H](C)O)nc2Cl)CCN1C1CCN(C(=O)c2ccc(Cl)cc2)CC1 [compound 338]	human CXCR3 (N-delta 4) (Homo sapiens, UniProt P49682)	< 25 nM
CC[C@H]1CN(c2nc(N)c(C(=O)NCC(=O)O)nc2Cl)CCN1C1CCN(Cc2ccc(Cl)cc2)CC1 [compound 105]	human CXCR3 (N-delta 4) (Homo sapiens, UniProt P49682)	> 100 nM

[in] IC50 lookup needed for CCNC(=O)c1cnc(N2CCN(C3CCN(C(=O)c4ccc(Cl)cc4)CC3)[C@@H](CC)C2)c(C(F)(F)F)n1 [compound 484] , thanks.
[out] < 25 nM

[in] I have this compound here, CC[C@H]1CN(c2nc(N)c(C(=O)NC[C@H](C)O)nc2Cl)CCN1C1CCN(C(=O)c2ccc(Cl)cc2)CC1 [compound 319] , and I need its recorded IC50.
[out] 25 to 100 nM

[in] Quick check: IC50 of CC[C@H]1CN(c2nc(N)c(C(=O)NCCNS(N)(=O)=O)nc2Cl)CCN1C1CCN([C@@H](CO)c2ccc(Cl)cc2)CC1 [compound 257] ?
[out] < 25 nM

[in] Using the record for CC[C@H]1CN(c2nc(N)c(C(=O)NCCCNS(C)(=O)=O)nc2Cl)CCN1C1CCN(Cc2ccc(C#N)cc2)CC1 [compound 226] , report its IC50.
[out] > 100 nM

[in] State the recorded IC50 for this entry: CC[C@H]1CN(c2nc(N)c(C(=O)NC[C@@H](C)O)nc2Cl)CCN1C1CCN(Cc2ccc(Cl)cc2[C@@H](O)C(N)=O)CC1 [compound 222]
[out] < 25 nM

----------
Below, each entry is listed alongside its reported pIC50.
Target: human CXCR3 (N-delta 4) (Homo sapiens)
Construct: CD8 leader (N); Flag; expressed in transfected cells; membranes prepared
Test: Human CXCR3 (N-delta 4) Scintillation Proximity Assay (SPA), [125I] IP-10 binding to Ba/F3-hCXCR3 membranes
Settings: IC50 rating, Table 1; read-out: IC50
pIC50: −log10 of the molar value.

Before answering, review these 3 worked examples.
Compound	pIC50
CC[C@H]1CN(c2nc(N)c(C(=O)NCCO)nc2Cl)CCN1C1CCN(C(=O)c2ccc(F)c(F)c2)CC1 [compound 318]	7.00 to 7.60
CC[C@H]1CN(c2nc(N)c(C(N)=O)nc2Cl)CCN1C1CCN(Cc2ccc(C#N)cc2)CC1 [compound 16]	> 7.60
CC[C@H]1CN(c2nc(N)c(C(=O)NCCO)nc2Cl)CCN1C1CCN(C(=O)c2ccc(F)c(F)c2F)CC1 [compound 351]	7.00 to 7.60

Consider the additional compound presented here.
[in] Could you tell me which pIC50 is on file for CC[C@H]1CN(c2nc(N)c(C(N)=O)nc2Cl)CCN1C1CCN(Cc2ccc(Cl)cc2C2COC(=O)O2)CC1 (stereo partly shown) [compound 24] ?
[out] 7.00 to 7.60

----------
Catalogue of pIC50 values
Molecular target: human CXCR3 (N-delta 4) (Homo sapiens)
Construct: CD8 leader (N); Flag; expressed in transfected cells; membranes prepared
Assay: Human CXCR3 (N-delta 4) Scintillation Proximity Assay (SPA), [125I] IP-10 binding to Ba/F3-hCXCR3 membranes
Details: IC50 rating, Table 1; read-out: IC50
pIC50: −log10 of the molar value.

As a guide, the following entries are already answered.
Compound	Measurement Type	Recorded Measurement
CC[C@H]1CN(c2nc(N)c(C(=O)NCCO)nc2Cl)CCN1C1CCN(Cc2ccc(Cl)cc2CO)CC1 [compound 107]	pIC50	> 7.60
CC[C@H]1CN(c2ncc(C(=O)NC3CC3)nc2C)CCN1C1CCN(Cc2ccc(F)cc2)CC1 [compound 440]	pIC50	> 7.60
CC[C@H]1CN(c2ncc(C(=O)NC)nc2C)CCN1C1CCN(C(=O)c2ccc(Cl)c(F)c2)CC1 [compound 454]	pIC50	> 7.60
CC[C@H]1CN(c2nc(N(C)C)c(C(=O)OC)nc2Cl)CCN1C1CCN(Cc2ccc(Cl)cc2)CC1 [compound 290]	pIC50	> 7.60
CC[C@H]1CN(c2nc(N)c(C(=O)NCCO)nc2Cl)CCN1C1CCN(Cc2ccc(N3CCOCC3)c(F)c2F)CC1 [compound 205]	pIC50	< 7.00

[in] May I ask what pIC50 has been recorded for CC[C@H]1CN(c2nc(N)c(C(N)=O)nc2Cl)CCN1C1CCN([C@@H](C(=O)O)c2ccc(Cl)cc2)CC1 [compound 40] ?
[out] 7.00 to 7.60

[in] What does the data say about its pIC50? Entry: CC[C@H]1CN(c2nc(N)c(C(=O)NCCO)nc2Cl)CCN1C1CCN([C@@H](CO)c2ccc(C#N)cc2)CC1 [compound 116]
[out] > 7.60

[in] Give its pIC50 value. Item: CC[C@H]1CN(c2nc(N)c(C(=O)NCCO)nc2Cl)CCN1C1CCN(Cc2ccc(OS(C)(=O)=O)c(F)c2)CC1 [compound 426]
[out] < 7.00
